# target: Human recombinant GST-PI3Kγ (Homo sapiens)
# Sequence (P48736 whole entry): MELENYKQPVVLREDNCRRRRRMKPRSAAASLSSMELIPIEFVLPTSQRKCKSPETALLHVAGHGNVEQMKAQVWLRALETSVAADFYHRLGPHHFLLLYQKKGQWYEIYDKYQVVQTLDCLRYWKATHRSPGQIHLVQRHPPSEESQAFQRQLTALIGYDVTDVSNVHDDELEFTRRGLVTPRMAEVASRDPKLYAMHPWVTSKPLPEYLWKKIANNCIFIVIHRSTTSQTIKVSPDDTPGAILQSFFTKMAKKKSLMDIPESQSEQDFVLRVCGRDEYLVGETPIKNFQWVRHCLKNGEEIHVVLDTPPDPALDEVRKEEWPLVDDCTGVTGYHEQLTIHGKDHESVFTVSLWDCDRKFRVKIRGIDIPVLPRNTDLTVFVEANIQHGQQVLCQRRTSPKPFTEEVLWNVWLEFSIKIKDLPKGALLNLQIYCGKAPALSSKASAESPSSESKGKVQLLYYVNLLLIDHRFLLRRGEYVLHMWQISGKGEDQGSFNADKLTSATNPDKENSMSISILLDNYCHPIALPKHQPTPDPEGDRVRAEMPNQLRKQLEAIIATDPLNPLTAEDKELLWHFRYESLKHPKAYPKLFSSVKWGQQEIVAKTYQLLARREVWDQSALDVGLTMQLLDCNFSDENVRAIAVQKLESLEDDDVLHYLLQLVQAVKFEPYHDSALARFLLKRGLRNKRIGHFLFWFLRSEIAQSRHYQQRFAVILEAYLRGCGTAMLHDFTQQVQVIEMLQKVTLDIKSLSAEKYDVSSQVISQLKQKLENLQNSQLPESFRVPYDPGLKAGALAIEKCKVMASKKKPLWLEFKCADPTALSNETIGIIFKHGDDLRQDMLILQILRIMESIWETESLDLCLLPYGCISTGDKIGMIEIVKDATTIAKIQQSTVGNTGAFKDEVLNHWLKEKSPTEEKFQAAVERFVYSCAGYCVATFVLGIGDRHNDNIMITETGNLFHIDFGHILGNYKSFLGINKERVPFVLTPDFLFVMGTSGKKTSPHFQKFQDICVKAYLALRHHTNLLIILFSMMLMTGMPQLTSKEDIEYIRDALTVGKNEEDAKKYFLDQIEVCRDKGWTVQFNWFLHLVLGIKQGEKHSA
# assay_protocol: High Throughput PI3K Lipid Kinase Assay (SPA, neomycin-coated beads)
measured_property: IC50 (nM)

Below are worked cases with known answers.
molecule	IC50, nM
CC(=O)Nc1nc(C)c(-c2ccc(C(=O)N3CCOCC3)s2)s1 [Example 5]	249
CC(=O)Nc1nc(C)c(-c2ccc(CO)s2)s1 [Example 3]	219

1 = CC(=O)Nc1nc(C)c(-c2ccc(C=O)s2)s1 [Example 1]
2 = CC(=O)Nc1nc(C)c(-c2ccc(C(=O)N3CCCC(O)C3)s2)s1 (stereo not shown) [Example 8]
I'm curious, which of these has a smaller IC50 number: 1 or 2 ? The response must carry the label of the picked entry.
1

###

# System: Akt/PKB phosphorylation
# assay_protocol: Cell based ELISA to monitor PI3K inhibition: Akt/PKB phosphorylation in Raw 264-7 macrophages after Complement 5a stimulation
# measurement_setup: Mus musculus, RAW264.7, phospho Serine 473 Akt, read-out: Cell Assay (P-Akt, Elisa) IC50
measured_property: IC50 (nM)
Lab book: enter the figure in nM, no units written.

GET /values?readout=IC50&item= C=CCNS(=O)(=O)c1ccc(-c2sc(NC(C)=O)nc2C)s1 [Example 12]
322
